# protocolText: Ligand partition coefficient between polar solvent and hexane
# Assay type: physicochemical
# testConditions: caprolactone/hexane, ambient temperature
readoutName: Kpartition
Form: value (number only, do not type unit).

Worked set:
O=P(CCP(c1ccccc1)c1ccccc1)(c1ccccc1)c1ccccc1 [Ligand D] = 80
N#Cc1cccc(P(c2cccc(C#N)c2)c2cccc(C#N)c2)c1 [Ligand B] = 960

Now turn to the next molecule.
query: Dear colleague, I am looking for the recorded Kpartition of the following molecule: c1ccc(P(c2ccccc2)c2ccccc2)cc1 [TPP, triphenylphosphine, reference compound]
result: 3

====

# protocolText: Ligand partition coefficient between polar solvent and hexane
# Assay type: physicochemical
# testConditions: summary table; acetonitrile and hexane
readoutName: Kpartition
Provide a numeric answer; units are not to be included.

Solved cases (5 shown):
c1ccc(-c2ccccc2Op2oc3ccccc3c3ccccc3o2)c(Op2oc3ccccc3c3ccccc3o2)c1 = 25
c1ccc(P(c2ccccc2)C2CCCCC2)cc1 [CHDPP, cyclohexyldiphenylphosphine, reference compound] = 0.4
O=[N+]([O-])c1ccc(Op2oc3ccccc3c3ccccc3o2)cc1 = 22
N#Cc1cccc(Op2oc3ccccc3c3ccccc3o2)c1 = 28
COc1ccc(P(c2ccc(OC)cc2)c2ccc(OC)cc2)cc1 = 11

query: Requested field: Kpartition. Item: N#Cc1ccc(P(c2ccc(C#N)cc2)c2ccc(C#N)cc2)cc1
result: 430

query: Form field: reported Kpartition of OCCCP(c1ccccc1)c1ccccc1
result: 26

query: Suppose we examine the compound O=P(CP(c1ccccc1)c1ccccc1)(c1ccccc1)c1ccccc1 ; what Kpartition value has been reported?
result: 620
